# System: tyrosinase from mushroom
# ASSAY SUMMARY: Mushroom tyrosinase activity
# Format: biochemical
# CONDITION LABEL: Substrate: L-Tyrosine, 10 µM
OBSERVABLE: Inhibition (%) of mushroom tyrosinase

CCCCCCCCCCCOC1=C(OCC(O)CO)C(=O)O[C@@H]1[C@@H](O)CO (stereo partly drawn) [compound 25] :: −8.0
CCCCCCCCCCCCCCOC1=C(OCC(O)CO)C(=O)O[C@@H]1[C@@H](O)CO (stereo partly drawn) [compound 28] :: −4.4
CCCCCCCCCCCCCCOC1=C(OCC(O)CO)[C@@H]([C@@H](O)CO)OC1=O (stereo partly drawn) [compound 14] :: −7.0
CCCCCCCCCCCCCOC1=C(OCC(O)CO)[C@@H]([C@@H](O)CO)OC1=O (stereo partly drawn) [compound 13] :: −4.7
CCCCCCCCCCOC1=C(OCC(O)CO)C(=O)O[C@@H]1[C@@H](O)CO (stereo partly drawn) [compound 24, 3-O-decyl-2-O-(2,3-dihydroxypropyl)-AsA] :: −4.1
CCCCCCCCCCCOC1=C(OCC(O)CO)[C@@H]([C@@H](O)CO)OC1=O (stereo partly drawn) [compound 11] :: 2.9

====

# ASSAY SUMMARY: Cell viability of B16 melanoma 4A5 cells
# Format: cell-based, murine
# CONDITION LABEL: mouse, 10 µM, B16 4A5 cells
# Protocol: The effects on theophylline-stimulated melanogenesis and viability of B16 melanoma 4A5 cells were examined according to previously described protocols. Briefly, murine B16 melanoma 4A5 cells were seeded into 48-well plates in DMEM. After 24 h of culture, a test compound and theophylline (1 mM) were added and incubated for 72 h. The melanin content and cell viability were then measured. IC50 values were determined graphically.
OBSERVABLE: viability at 72 h, 10 µM (%)

CCCCCCCCCCCCCCOC1=C(OCC(O)CO)[C@@H]([C@@H](O)CO)OC1=O (some centres unmarked) :: 89.1
CCCCCCCCCCCOC1=C(OCC(O)CO)C(=O)O[C@@H]1[C@@H](O)CO (some centres unmarked) :: 85.8
CCCCCCCCCCOC1=C(OCC(O)CO)C(=O)O[C@@H]1[C@@H](O)CO (some centres unmarked) [compound 24, 3-O-decyl-2-O-(2,3-dihydroxypropyl)-AsA] :: 87.1
CCCCCCCCCCCCOC1=C(OCC(O)CO)[C@@H]([C@@H](O)CO)OC1=O (some centres unmarked) :: 104
CCCCCCCOC1=C(OCC(O)CO)C(=O)O[C@@H]1[C@@H](O)CO (some centres unmarked) [compound 21, 2-O-(2,3-dihydroxypropyl)-3-O-heptyl-AsA] :: 92.7
CCCCCCCCCCCOC1=C(OCC(O)CO)[C@@H]([C@@H](O)CO)OC1=O (some centres unmarked) :: 90.8
CCCCCCCOC1=C(OCC(O)CO)[C@@H]([C@@H](O)CO)OC1=O (some centres unmarked) [compound 7, 3-O-(2,3-dihydroxypropyl)-2-O-heptyl-AsA] :: 95.4
CCCCCCCCOC1=C(OCC(O)CO)C(=O)O[C@@H]1[C@@H](O)CO (some centres unmarked) [compound 22, 2-O-(2,3-dihydroxypropyl)-3-O-octyl-AsA] :: 99.3

====

A collection of compounds and their measured Inhibition (%) of mushroom tyrosinase
# Tested on: tyrosinase from mushroom
# ASSAY SUMMARY: Mushroom tyrosinase activity
# Assay type: biochemical
# CONDITION LABEL: Substrate: L-DOPA, 30 µM
# Method: Tyrosinase activities using L-tyrosine or L-DOPA as a substrate were determined according to the protocols described previously. Briefly, samples, L-tyrosine (2.5 mM, or L-DOPA, 3.0 mM), mushroom tyrosinase (46 units/mL), and phosphate buffer were mixed in a 96-well plate and incubated at 25 °C. (L-tyrosine; 30 min, L-DOPA; 5 min). The absorbance was then measured at 492 nm.
OBSERVABLE: Inhibition (%) of mushroom tyrosinase

CCCCCCCCCCCOC1=C(OCC(O)CO)C(=O)O[C@@H]1[C@@H](O)CO (some centres unmarked) :: −10.7
CCCCCCOC1=C(OCC(O)CO)C(=O)O[C@@H]1[C@@H](O)CO (some centres unmarked) [compound 20, 2-O-(2,3-dihydroxypropyl)-3-O-hexyl-AsA] :: −5.7
CCCCCCCCCCOC1=C(OCC(O)CO)[C@@H]([C@@H](O)CO)OC1=O (some centres unmarked) [compound 10, 2-O-decyl-3-O-(2,3-dihydroxypropyl)-AsA] :: 2.4
CCCCCCCCOC1=C(OCC(O)CO)[C@@H]([C@@H](O)CO)OC1=O (some centres unmarked) [compound 8, 3-O-(2,3-dihydroxypropyl)-2-O-octyl-AsA] :: 2.4
CCCCCCCCCOC1=C(OCC(O)CO)[C@@H]([C@@H](O)CO)OC1=O (some centres unmarked) [compound 9, 3-O-(2,3-dihydroxypropyl)-2-O-nonyl-AsA] :: 4.8
CCCCCCCCOC1=C(OCC(O)CO)C(=O)O[C@@H]1[C@@H](O)CO (some centres unmarked) [compound 22, 2-O-(2,3-dihydroxypropyl)-3-O-octyl-AsA] :: −13.1
CCCCCCOC1=C(OCC(O)CO)[C@@H]([C@@H](O)CO)OC1=O (some centres unmarked) [compound 6, 3-O-(2,3-dihydroxypropyl)-2-O-hexyl-AsA] :: −1.5
CCCCCCCCCCCCCOC1=C(OCC(O)CO)[C@@H]([C@@H](O)CO)OC1=O (some centres unmarked) :: −4.4

====

A collection of compounds and their measured Inhibition (%) of mushroom tyrosinase
# Tested on: tyrosinase from mushroom
# ASSAY SUMMARY: Mushroom tyrosinase activity
# Type: biochemical
# CONDITION LABEL: Substrate: L-Tyrosine, 30 µM
OBSERVABLE: Inhibition (%) of mushroom tyrosinase

CCCCCCCCCOC1=C(OCC(O)CO)C(=O)O[C@@H]1[C@@H](O)CO (stereo partly drawn) [compound 23, 2-O-(2,3-dihydroxypropyl)-3-O-nonyl-AsA] :: −5.0
CCCCCCCCCCCCCCOC1=C(OCC(O)CO)C(=O)O[C@@H]1[C@@H](O)CO (stereo partly drawn) :: −8.4
CCCCCCCCCCCOC1=C(OCC(O)CO)C(=O)O[C@@H]1[C@@H](O)CO (stereo partly drawn) :: −8.7

These data points were gathered from paper PMC5979531.
